Just for reference, paper PMC9995496 is where these values come from.

- Tested on: PRKACA-PRKAR2A interaction (SmBiT-PRKACA / LgBiT-PRKAR2A), protein kinase A
- Design: NanoLuc complementation counter-screen in cell extract, PRKACA with PRKAR2A, loss of luminescence, detects NanoLuc interference
- Stated Conditions: counter-screen for NanoLuc interference; 0.5 h, 20 µM; inhibitor
Structures can show the parent of a compound that is named as a salt.
Test Readout: Inh (PKA) (%)
A number alone suffices; assume %.

[Q] So what does the record say about Inh (PKA) for COc1ccc(N(C)c2nc(C)nc3ccccc23)cc1 [UM0142800:01, MPC 6827 hydrochloride] ?
[A] 22.54

[Q] So what does the record say about Inh (PKA) for CCCCOc1c(C(=O)c2c(F)cc(C)cc2F)c[nH]c2nncc1-2 [UM0142024:01, BMS265246] ?
[A] 6.004

[Q] So what does the record say about Inh (PKA) for CC[N+](C)(C)c1cccc(O)c1 [UM0118243:03, Edrophonium (chloride)] ?
[A] -0.559

[Q] So what does the record say about Inh (PKA) for Cc1ccnc2c1NC(=O)c1cccnc1N2C1CC1 [UM0142060:01, Nevirapine] ?
[A] 3.121

[Q] So what does the record say about Inh (PKA) for CCOc1cc(N)c(Cl)cc1C(=O)NCC1CN(Cc2ccc(F)cc2)CCO1 (stereo not shown) [UM0141391:01, Mosapride Citrate] ?
[A] 13.81

[Q] So what does the record say about Inh (PKA) for Cn1cncc1[C@@](N)(c1ccc(Cl)cc1)c1ccc2c(c1)c(-c1cccc(Cl)c1)cc(=O)n2C [UM0135485:03, Tipifarnib (Zarnestra)] ?
[A] 47.09

[Q] So what does the record say about Inh (PKA) for CNCCC=C1c2ccccc2CCc2ccccc21 [UM0118370:03, Nortriptyline (hydrochloride)] ?
[A] 4.028

[Q] So what does the record say about Inh (PKA) for Nc1nc2[nH]cnc2c(=S)[nH]1 [UM0141747:01, Thioguanine] ?
[A] 3.135

[Q] So what does the record say about Inh (PKA) for N[C@@H](CCC(=O)N[C@@H](CS)C(=O)NCC(=O)O)C(=O)O [UM0120654:03, L-Glutathione Reduced] ?
[A] -0.7865

[Q] So what does the record say about Inh (PKA) for NS(=O)(=O)c1nn2cc(-c3ccccc3)nc2s1 [UM0142826:01, AEG 3482] ?
[A] 8.076

[Q] So what does the record say about Inh (PKA) for CC(C)C[C@H](NC(=O)CNC(=O)c1cc(Cl)ccc1Cl)B1OC(=O)C(CC(=O)O)(CC(=O)O)O1 [UM0141662:01, MLN9708] ?
[A] -0.4944

[Q] So what does the record say about Inh (PKA) for CCN1CCN(Cc2ccc(-c3cc4c(N[C@H](C)c5ccccc5)ncnc4[nH]3)cc2)CC1 [UM0141890:01, AEE788 (NVP-AEE788)] ?
[A] 7.14

[Q] So what does the record say about Inh (PKA) for C=CC(=O)Nc1cccc(Nc2nc(Nc3ccc(OCCOC)cc3)ncc2F)c1 [UM0141522:01, AVL-292] ?
[A] 22.87

[Q] So what does the record say about Inh (PKA) for O=C1[C@H](CC[C@H](O)c2ccc(F)cc2)[C@@H](c2ccc(O)cc2)N1c1ccc(F)cc1 [UM0142039:01, Ezetimibe] ?
[A] 29.66

[Q] So what does the record say about Inh (PKA) for Cc1ccc(Nc2ncc3c(n2)N(C)C(=O)N(c2cc(NC(=O)c4cccc(C(F)(F)F)c4)ccc2C)C3)cn1 [UM0142721:01, GNF-7] ?
[A] 15.96

[Q] So what does the record say about Inh (PKA) for O=C(O)[C@]1(Cc2cccc(Nc3nccs3)n2)CC[C@@H](Oc2cccc(Cl)c2F)CC1 [UM0141717:01, MK-5108 (VX-689)] ?
[A] 44.53

[Q] So what does the record say about Inh (PKA) for CCN(CC)CCN(Cc1ccc(-c2ccc(C(F)(F)F)cc2)cc1)C(=O)Cn1c(SCc2ccc(F)cc2)nc(=O)c2c1CCC2 [UM0141541:01, Darapladib] ?
[A] 8.505

[Q] So what does the record say about Inh (PKA) for Nc1ccc(/C=C/C(=O)NCc2cc3cc(-c4ccc(C(=O)N5CCC(F)(F)CC5)cc4)cc(-c4ccc(F)cc4)c3o2)cn1 [UM0142694:01, KPT-9274] ?
[A] 5.106

[Q] So what does the record say about Inh (PKA) for C[C@@H]1CCO[C@H]2Cn3cc(C(=O)NCc4ccc(F)cc4F)c(=O)c(O)c3C(=O)N12 [UM0141694:01, S/GSK1349572] ?
[A] 3.965
